- EXPERIMENTAL TARGET: DYRK1A (Homo sapiens (Human))
- ASSAY SUMMARY: DYRK1A activity Tau assay: pSer396 Tau in SH-SY5Y cells by ELISA / western blot
- EXPERIMENTAL CONTEXT: overnight (16-18 h) exposure
Listed compounds paired with reported pEC50
Units for pEC50: none; it is -log10 of a concentration expressed in mol/L.

Which pEC50 is reported with DYRK1A (Homo sapiens (Human)) for this entry: O=C(NC1CCCCC1)c1n[nH]c2ccc(-c3cc(CN4CCCCC4)cc(F)c3F)cc12 ?
7.44

More entries:
Which pEC50 is reported with DYRK1A (Homo sapiens (Human)) for this entry: O=C(NC1CCN(CCF)CC1)c1n[nH]c2ccc(-c3cncc(Cl)c3)cc12 ?
7.57

Try the compound CC(C)(F)CN1CCC(NC(=O)c2n[nH]c3ccc(-c4ccc(F)nc4)cc23)CC1
7.85

Try the compound O=C(NCCN1CCCC1)c1n[nH]c2ccc(-c3cccc(F)c3F)cc12
7.10
